Data provenance is PubChem BioAssay (NCI).

- Tested on: SF-295 CNS
- experimental_protocol: NCI-60 one-dose screen, 48 h (100 = growth as untreated, 0 = no growth, -100 = all killed)
- condition_set: 10 µM unless noted
- Description: Cells are grown in 96 well plates and exposed to the test compound for 48 hours. Compounds are tested at a single concentration, which is 10^-5 M for most compounds. The reported endpoint is percent growth (GI% or GIPRCNT), where numbers from 0 - 100% represent growth inhibition, and numbers from -100% - 0 represent cell death. For example, a value of 40 represents 60% growth inhibition. A value of 0 means no net growth occurred over the course of the experiment. […]
The panel holds about 83,000 compounds, 20% with a hit somewhere; the sample as a whole holds those more often.
Would you please tag the item met when its growth is 50% or above, and not met when it is below?

Answered examples (4):
molecule=Cc1cc(C)c(NC(=O)c2sc3nc4c(cc3c2N)CCCCCC4)c(C)c1 target_or_test_system="SF-295 CNS" group_label="not met"
molecule=CCOC(=O)CC[C@H](NC(=O)c1ccc(NC)c2ccccc12)C(=O)OCC target_or_test_system="SF-295 CNS" group_label=met
molecule="CCc1c(C(=O)N[C@@H](C(=O)OCc2ccccc2)C(C)O)[nH]c2ccc(Cl)cc12 (stereo not given in full)" target_or_test_system="SF-295 CNS" group_label=met
molecule=C#Cc1ccccc1NC(=O)c1sc2nc3c(cc2c1N)CCCCCC3 target_or_test_system="SF-295 CNS" group_label=met

Now examine the next entry.
Q: Evaluate "COC(=O)CCc1n(Cc2ccc3ccccc3c2)c2ccccc2[n+]1Cc1ccc2ccccc2c1" : growth at minimum 50%?
Result: not met
